B1: CPEB3 Ribozyme (parent)
chain: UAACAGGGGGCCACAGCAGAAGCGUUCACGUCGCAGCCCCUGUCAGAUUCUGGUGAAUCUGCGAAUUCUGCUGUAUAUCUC

Variants of: B1
assay: self-cleavage, relative activity (ratio to wild type); higher = more cleavage; in vitro, sequencing
Entries are sorted into classes by self-cleavage as follows: zone 1 = under 0.3, zone 2 = from 0.3 up to 0.5, zone 3 = 0.5 and over

Which category fits this record: G53A A65U zone 1

Can you check A28U A64C next? zone 2

Can you check U54G U78A next? zone 3

Can you check G24A U51A next? zone 1

Can you check C27G U74C next? zone 2

Can you check C62U A64G next? zone 1

Can you check U43C C62G next? zone 1

Can you check U41C A75C next? zone 3

Can you check A18G A35G next? zone 3

Can you check G24A A56U next? zone 2

Can you check A3U U74A next? zone 3

Can you check U41C A65G next? zone 3

Can you check A45G C71U next? zone 3

Can you check U54C U74C next? zone 3

Can you check U58C U78A next? zone 2

Can you check C11A G73A next? zone 3

Can you check U1A G22A next? zone 1

Can you check C29A U69C next? zone 1

Can you check A18U U31G next? zone 1

Can you check A3G G55U next? zone 3

Can you check G10C U41C next? zone 1

Can you check C37A U76C next? zone 2

Can you check U31A U41A next? zone 2

Can you check G30C U43C next? zone 1

Can you check A13G G70A next? zone 1

Can you check A2G U31A next? zone 2

Can you check C12U G16U next? zone 3

Can you check U49A G70U next? zone 1

Can you check U25A A75U next? zone 2

Can you check U43C G46C next? zone 1

Can you check A35U U49A next? zone 2

Can you check A18U G22U next? zone 1

Can you check G9U U49C next? zone 1

Can you check U31C U60A next? zone 2

Can you check A20C U69A next? zone 2

Can you check G6C G42A next? zone 2

Can you check U72A U76C next? zone 3

Can you check U31G C34U next? zone 1

Can you check A3G U54A next? zone 3

Can you check G24A U69A next? zone 1

Can you check A5G U58C next? zone 2

Can you check A13C U69C next? zone 3

Can you check G6A C62A next? zone 1

Can you check G16C U74A next? zone 2

Can you check C4U A35U next? zone 3

Can you check U72C C79G next? zone 3

Can you check G9U G63A next? zone 1

Can you check G6U U25C next? zone 2

Can you check U31G U41C next? zone 2

Can you check C12U A28G next? zone 3

Can you check G24U U58C next? zone 1

Can you check C11A G73C next? zone 3

Can you check C34U A47U next? zone 1

Can you check G16A U41A next? zone 1

Can you check G46U A75C next? zone 2

Can you check U1C A3U next? zone 3

Can you check C38A G73C next? zone 2

Can you check U1C U51A next? zone 3

Can you check A13G U66G next? zone 2

Can you check U25A A35G next? zone 2

Can you check A2U A28U next? zone 3

Can you check A18G U58A next? zone 1

Can you check A75G U80C next? zone 3

Can you check G36A U58A next? zone 1

Can you check A35G C81U next? zone 3

Can you check U41C A65U next? zone 2

Can you check C27U G33U next? zone 2

Can you check C4U A75G next? zone 3

Can you check C12U U69A next? zone 3

Can you check U31A C34U next? zone 1

Can you check U25C A57C next? zone 1

Can you check U54A U60G next? zone 3

Can you check A28U C68A next? zone 2

Can you check A3C next? zone 3

Can you check C17A A45U next? zone 1

Can you check A64C U74C next? zone 2

Can you check G33U U49C next? zone 1

Can you check A13G A77U next? zone 3
